From: paper PMC4335062

Target: CREB3 (Homo sapiens, UniProt O43889)
Construct: made in house
Sequence (O43889 150-213 limits assumed): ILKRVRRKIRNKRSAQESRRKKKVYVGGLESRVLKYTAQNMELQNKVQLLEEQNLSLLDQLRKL
Experiment: Direct-binding FRET assay
Settings: 37°C; C-terminal rhodamine design; mean or single; read-out: Kd
Protocol: The direct binding assay was performed manually in 384-well plates and is similar to a previously described assay. Wells were filled with 20 μL of 1 mM TCEP-HCl. […] Briefly, the Kd of the designed peptide homodimer was experimentally determined and used with previously determined target homodimer Kd values to determine the heterodimer Kd. […] A minimum 15% change in the donor fluorescence upon titrating the acceptor peptide from 0 to 1000 nM was required for a fit to be attempted. […]
Where no end group is shown, it is not given here.
assayEndpoint: Kd

{"columns": ["chain", "assayEndpoint", "val"],
 "data": [
  ["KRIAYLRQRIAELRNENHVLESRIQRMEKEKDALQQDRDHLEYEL [ATF5-d1]", "Kd", "0.2 to 1 µM"],
  ["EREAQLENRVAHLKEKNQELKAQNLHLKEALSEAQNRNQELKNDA [XBP1-d1]", "Kd", "> 1 µM"],
  ["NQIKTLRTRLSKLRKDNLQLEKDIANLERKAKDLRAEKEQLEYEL [ATF4-d1]", "Kd", "> 5 µM"]
]}

* * *

Molecular target: ATF6B (Homo sapiens, UniProt Q99941)
Sequence (Q99941 325-388 limits assumed): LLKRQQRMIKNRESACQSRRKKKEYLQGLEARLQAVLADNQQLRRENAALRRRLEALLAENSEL
Assay: Direct-binding FRET assay
Parameters: made in house
Conditions: Kd, 23°C; C-terminal rhodamine design; repeat 1
pKd: −log10 of the molar value. Where no end group is shown, it is not given here.

{"columns": ["chain", "tgt", "pKd"],
 "data": [
  ["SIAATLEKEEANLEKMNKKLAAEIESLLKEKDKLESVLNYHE [JUN-d1]", "ATF6B (Homo sapiens, UniProt Q99941)", "< 6.00"]
]}

* * *

Molecular target: ATF3 (Homo sapiens, UniProt P18847)
Construct: made in house
Assay: Direct-binding FRET assay
Settings: 23°C; C-terminal fluorescein design as donor, TAMRA target titrated
pKd: −log10 of the molar value. Where no end group is shown, it is not given here.

{"columns": ["chain", "pKd"],
 "data": [
  ["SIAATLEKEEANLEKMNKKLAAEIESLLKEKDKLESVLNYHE [JUN-d1]", "< 6.00"]
]}

* * *

Biological target: NFIL3 (Homo sapiens, UniProt Q16649)
Construct: made in house
Sequence (Q16649 73-136 limits assumed): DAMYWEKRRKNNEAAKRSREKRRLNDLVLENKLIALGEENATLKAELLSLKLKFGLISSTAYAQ
Experiment: Direct-binding FRET assay
Details: 37°C; C-terminal fluorescein design as donor, TAMRA target titrated
pKd: −log10 of the molar value. Where no end group is shown, it is not given here.

{"columns": ["chain", "pKd"],
 "data": [
  ["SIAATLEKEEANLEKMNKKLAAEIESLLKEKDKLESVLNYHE [JUN-d1]", "< 6.00"]
]}

* * *

Biological target: ATF3 (Homo sapiens)
Construct: made in house
Sequence (P18847 86-149 limits assumed): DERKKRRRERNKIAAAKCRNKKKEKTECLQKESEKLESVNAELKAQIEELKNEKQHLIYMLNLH
Experiment: Direct-binding FRET assay
Where no end group is shown, it is not given here.

{"columns": ["chain", "tgt", "Kd"],
 "data": [
  ["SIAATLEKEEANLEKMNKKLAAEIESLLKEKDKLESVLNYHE [JUN-d1]", "ATF3 (Homo sapiens)", "> 1 µM"]
]}

* * *

Target: NFE2L2 (Homo sapiens)
Construct: made in house
Sequence (Q16236 497-560 limits assumed): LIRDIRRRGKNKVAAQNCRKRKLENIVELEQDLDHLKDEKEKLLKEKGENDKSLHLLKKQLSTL
Assay: Direct-binding FRET assay
Settings: Kd, 4°C; C-terminal rhodamine design; mean or single
Where no end group is shown, it is not given here.

{"columns": ["chain", "Kd"],
 "data": [
  ["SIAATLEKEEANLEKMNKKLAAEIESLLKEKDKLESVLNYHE [JUN-d1]", "> 1000 nM"]
]}

* * *

Target: ATF6 (Homo sapiens)
Sequence (P18850 306-369 limits assumed): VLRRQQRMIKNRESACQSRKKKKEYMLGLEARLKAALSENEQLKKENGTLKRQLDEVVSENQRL
Experiment: Direct-binding FRET assay
Parameters: made in house
Conditions: 4°C; C-terminal rhodamine design; mean or single; read-out: Kd
Where no end group is shown, it is not given here.
assayEndpoint: Kd

{"columns": ["chain", "assayEndpoint", "val"],
 "data": [
  ["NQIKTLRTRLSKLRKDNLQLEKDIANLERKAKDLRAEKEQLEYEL [ATF4-d1]", "Kd", "> 1 µM"],
  ["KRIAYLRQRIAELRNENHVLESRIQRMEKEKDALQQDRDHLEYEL [ATF5-d1]", "Kd", "> 5 µM"]
]}

* * *

Target: FOS (Homo sapiens)
Assay: Direct-binding FRET assay
Design: made in house
Conditions: 4°C; N-terminal rhodamine design; mean or single; read-out: Kd
pKd: −log10 of the molar value. Where no end group is shown, it is not given here.
assayEndpoint: pKd

{"columns": ["chain", "resultOperator", "val"],
 "data": [
  ["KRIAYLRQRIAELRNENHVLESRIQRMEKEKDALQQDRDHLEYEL [ATF5-d1]", "=", 7.05],
  ["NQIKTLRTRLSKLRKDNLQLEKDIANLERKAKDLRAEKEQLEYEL [ATF4-d1]", "=", 6.88],
  ["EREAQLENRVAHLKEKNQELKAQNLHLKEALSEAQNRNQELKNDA [XBP1-d1]", "<", 6.00]
]}

* * *

Molecular target: ATF5 (Homo sapiens, UniProt Q9Y2D1)
Construct: made in house
Sequence (Q9Y2D1 208-271 limits assumed): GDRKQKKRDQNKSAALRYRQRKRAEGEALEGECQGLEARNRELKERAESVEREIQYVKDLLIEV
Experiment: Direct-binding FRET assay
Conditions: Kd, 23°C; N-terminal rhodamine design; mean or single
pKd: −log10 of the molar value. Where no end group is shown, it is not given here.
assayEndpoint: pKd

{"columns": ["chain", "assayEndpoint", "val"],
 "data": [
  ["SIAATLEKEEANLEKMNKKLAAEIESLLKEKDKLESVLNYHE [JUN-d1]", "pKd", "< 6.00"]
]}

* * *

Molecular target: FOS (Homo sapiens, UniProt P01100)
Assay: Direct-binding FRET assay
Set-up: made in house
Conditions: 4°C; C-terminal fluorescein design as donor, TAMRA target titrated
pKd: −log10 of the molar value. Where no end group is shown, it is not given here.

{"columns": ["chain", "pKd"],
 "data": [
  ["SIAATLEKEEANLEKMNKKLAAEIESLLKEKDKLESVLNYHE [JUN-d1]", "< 6.00"]
]}

* * *

Molecular target: BACH1 (Homo sapiens, UniProt O14867)
Sequence (O14867 557-620 limits assumed): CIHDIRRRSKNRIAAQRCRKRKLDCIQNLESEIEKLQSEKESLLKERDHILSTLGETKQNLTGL
Experiment: Direct-binding FRET assay
Set-up: made in house
Settings: 23°C; N-terminal rhodamine design; mean or single
Where no end group is shown, it is not given here.

{"columns": ["chain", "Kd"],
 "data": [
  ["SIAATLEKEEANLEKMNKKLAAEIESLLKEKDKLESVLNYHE [JUN-d1]", "> 1 µM"]
]}

* * *

Reported Kd by item:
Target: DBP (Homo sapiens, UniProt Q10586)
Construct: made in house
Sequence (Q10586 255-318 limits assumed): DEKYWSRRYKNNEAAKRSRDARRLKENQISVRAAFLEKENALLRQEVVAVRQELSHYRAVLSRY
Assay: Direct-binding FRET assay
Conditions: 37°C; C-terminal rhodamine design; mean or single; read-out: Kd
Where no end group is shown, it is not given here.

{"columns": ["chain", "Kd"],
 "data": [
  ["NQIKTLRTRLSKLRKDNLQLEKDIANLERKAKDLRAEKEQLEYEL [ATF4-d1]", "> 1000 nM"],
  ["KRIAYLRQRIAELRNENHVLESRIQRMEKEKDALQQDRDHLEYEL [ATF5-d1]", "> 1000 nM"],
  ["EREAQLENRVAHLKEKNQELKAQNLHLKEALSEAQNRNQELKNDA [XBP1-d1]", "> 1000 nM"]
]}

* * *

Target: NFE2L3 (Homo sapiens)
Construct: made in house
Sequence (Q9Y4A8 578-641 limits assumed): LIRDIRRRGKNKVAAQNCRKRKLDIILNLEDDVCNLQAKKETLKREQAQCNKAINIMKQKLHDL
Assay: Direct-binding FRET assay
Settings: 23°C; C-terminal rhodamine design; mean or single; read-out: Kd
Where no end group is shown, it is not given here.

{"columns": ["chain", "Kd"],
 "data": [
  ["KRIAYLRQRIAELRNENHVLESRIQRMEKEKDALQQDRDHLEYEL [ATF5-d1]", "> 1000 nM"],
  ["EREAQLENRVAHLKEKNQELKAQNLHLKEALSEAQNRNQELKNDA [XBP1-d1]", "> 1000 nM"]
]}

* * *

Target: ATF5 (Homo sapiens)
Construct: made in house
Assay: Direct-binding FRET assay
Conditions: 23°C; N-terminal rhodamine design; repeat 1; read-out: Kd
pKd: −log10 of the molar value. Where no end group is shown, it is not given here.
assayEndpoint: pKd

{"columns": ["chain", "assayEndpoint", "val"],
 "data": [
  ["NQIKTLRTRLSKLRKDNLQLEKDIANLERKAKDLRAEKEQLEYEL [ATF4-d1]", "pKd", "< 6.00"]
]}
